Attribute: CAR-J2 EC50
TARGET_OF_ASSAY: human GPRC5D (human, UniProt Q9NZD1 1-345)
Sequence (Q9NZD1 whole entry): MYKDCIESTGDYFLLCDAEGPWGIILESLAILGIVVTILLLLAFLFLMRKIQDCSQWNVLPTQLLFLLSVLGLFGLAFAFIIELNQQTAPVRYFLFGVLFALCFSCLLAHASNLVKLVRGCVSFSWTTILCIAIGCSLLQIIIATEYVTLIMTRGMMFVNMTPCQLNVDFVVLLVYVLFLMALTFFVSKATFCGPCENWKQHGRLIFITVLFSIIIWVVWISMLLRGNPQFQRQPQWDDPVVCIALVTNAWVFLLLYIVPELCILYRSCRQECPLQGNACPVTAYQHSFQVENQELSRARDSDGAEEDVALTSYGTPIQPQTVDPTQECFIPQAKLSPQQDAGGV
TEST: cell-based or functional assay
Kindly answer with a numeric value in ng/mL, unit omitted.

Below are worked cases with known answers.
[[record]]
binder = "P1AE5729 (antibody, V domains shown) VH: ELQLLESGGGLVQPGGSLRLSCAASGFTFSKYAMAWVRQAPGKGLEWVASISTGGVNTYYADSVKGRFTISRDNAKNTLYLQMNSLRAEDTAVYYCATHTGDYFDYWGQGTMVTVSS VL: EIVLTQSPGTLSLSPGERATLSCRASQSVSISGINLMNWYQQKPGQQPKLLIYHASILASGIPDRFSGSGSGTDFTLTISRLEPEDFAVYYCQQTRESPLTFGQGTRLEIK"
u = "ng/mL"
reading = 61.3

[[record]]
binder = "P1AE5723 (antibody, V domains shown) VH: EVQLLESGGGLVQPGGSLRLSCAASGFTFSKYAMAWVRQAPGKGLEWVASISTGGVNTYYADSVKGRFTISRDNSKNTLYLQMNSLRAEDTAVYYCATHTGDYFDYWGQGTMVTVSS VL: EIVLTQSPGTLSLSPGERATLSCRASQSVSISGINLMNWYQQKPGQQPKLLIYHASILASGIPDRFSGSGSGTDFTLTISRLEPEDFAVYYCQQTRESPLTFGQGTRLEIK"
u = "ng/mL"
reading = 3.7

[[record]]
binder = "P1AE5727 (antibody, V domains shown) VH: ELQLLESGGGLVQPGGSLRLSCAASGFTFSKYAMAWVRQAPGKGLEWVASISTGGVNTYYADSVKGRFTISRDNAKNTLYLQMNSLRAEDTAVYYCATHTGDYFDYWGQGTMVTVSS VL: DIVMTQSPDSLAVSLGERATINCKSSQSVSISGINLMNWYQQKPGQQPKLLIYHASILASGVPDRFSGSGSGTDFTLTISSLQAEDVAVYYCQQTRESPLTFGQGTRLEIK"
u = "ng/mL"
reading = 6.3

[[record]]
binder = "P1AE5731 (antibody, V domains shown) VH: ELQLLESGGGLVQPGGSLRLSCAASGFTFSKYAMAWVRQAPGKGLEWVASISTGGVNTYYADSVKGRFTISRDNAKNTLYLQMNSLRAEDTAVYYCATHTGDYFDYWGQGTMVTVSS VL: DIQMTQSPSSLSASVGDRVTITCRASQSVSISGINLMNWYQQKPGQQPKLLIYHASILASGVPSRFSGSGSGTDFTLTISSLQPEDFATYYCQQTRESPLTFGQGTRLEIK"
u = "ng/mL"
reading = 2.3

[[record]]
binder = "P1AE5708 (antibody, V domains shown) VH: EVQLLESGGGLVQPGGSLRLSCAASGFTFSKYAMAWVRQAPGKGLEWVASISTGGVNTYYRDSVKARFTISRDNSKNTLYLQMNSLRAEDTAVYYCATHTGDYFDYWGQGTMVTVSS VL: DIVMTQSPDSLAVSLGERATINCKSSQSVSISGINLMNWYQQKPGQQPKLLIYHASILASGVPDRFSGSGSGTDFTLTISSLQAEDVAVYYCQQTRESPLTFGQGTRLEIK"
u = "ng/mL"
reading = 456


Value lookup for CAR-J2 EC50; key = P1AE5728 (antibody, V domains shown) VH: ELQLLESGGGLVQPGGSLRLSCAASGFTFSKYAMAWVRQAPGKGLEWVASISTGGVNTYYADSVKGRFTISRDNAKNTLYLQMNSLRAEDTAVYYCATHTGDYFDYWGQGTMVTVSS VL: EIVLTQSPGTLSLSPGERATLSCRASQSVSISGINLMNWYQQKPGQQPRLLIYHASILASGIPDRFSGSGSGTDFTLTISRLEPEDFAVYYCQQTRESPLTFGQGTRLEIK 5.6

Let us now turn to P1AE5725 (antibody, V domains shown) VH: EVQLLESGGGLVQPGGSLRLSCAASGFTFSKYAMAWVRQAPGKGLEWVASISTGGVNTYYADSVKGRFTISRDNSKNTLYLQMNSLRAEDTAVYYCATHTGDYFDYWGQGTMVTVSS VL: DIQMTQSPSSLSASVGDRVTITCRASQSVSISGINLMNWYQQKPGQQPKLLIYHASILASGVPSRFSGSGSGTDFTLTISSLQPEDFATYYCQQTRESPLTFGQGTRLEIK 10.9

Let us now turn to P1AE5719 (antibody, V domains shown) VH: ELQLLESGGGLVQPGGSLRLSCAASGFTFSKYAMAWVRQAPGKGLEWVASISTGGVNTYYRDSVKARFTISRDNAKNTLYLQMNSLRAEDTAVYYCATHTGDYFDYWGQGTMVTVSS VL: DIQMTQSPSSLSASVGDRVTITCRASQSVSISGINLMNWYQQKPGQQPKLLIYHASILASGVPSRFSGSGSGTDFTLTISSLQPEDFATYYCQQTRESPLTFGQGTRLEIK 2.8

Let us now turn to P1AE5716 (antibody, V domains shown) VH: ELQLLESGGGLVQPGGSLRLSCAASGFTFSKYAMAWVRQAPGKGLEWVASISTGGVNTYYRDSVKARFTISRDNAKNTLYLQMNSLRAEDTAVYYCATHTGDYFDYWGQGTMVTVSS VL: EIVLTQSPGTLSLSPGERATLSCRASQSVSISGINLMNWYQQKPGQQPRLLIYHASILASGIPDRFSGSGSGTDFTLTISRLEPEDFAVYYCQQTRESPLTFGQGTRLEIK 3.3

Let us now turn to P1AE5712 (antibody, V domains shown) VH: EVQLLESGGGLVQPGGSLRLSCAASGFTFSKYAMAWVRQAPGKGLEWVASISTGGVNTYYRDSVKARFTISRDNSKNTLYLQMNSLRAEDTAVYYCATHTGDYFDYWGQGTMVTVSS VL: DIQMTQSPSSLSASVGDRVTITCRASQSVSISGINLMNWYQQKPGKQPKLLIYHASILASGVPSRFSGSGSGTDFTLTISSLQPEDFATYYCQQTRESPLTFGQGTRLEIK 16.1
